assayed-system: T1, Murine B7-H4 ECD-Flag-His10 (monomeric) (mouse, UniProt Q7TSP5 25-257)
T1 construct: extracellular domain; also called FlagHis10 murine B7-H4
T1 sequence (looked up): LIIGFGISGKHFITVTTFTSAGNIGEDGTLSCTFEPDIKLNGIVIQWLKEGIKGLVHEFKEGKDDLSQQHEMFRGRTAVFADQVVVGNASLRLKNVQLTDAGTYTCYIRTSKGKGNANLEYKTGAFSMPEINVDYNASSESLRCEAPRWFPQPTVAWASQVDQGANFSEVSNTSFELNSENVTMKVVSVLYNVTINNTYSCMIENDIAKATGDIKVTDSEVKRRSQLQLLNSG
procedure-text: Octet BLI, hIgG1 on Protein G (n = 1)
measured-attribute: koff (s⁻¹)

binder	measured-attribute	experimental-value
ZY0EPQ-E02 human IgG1 (antibody, V domains shown) VH: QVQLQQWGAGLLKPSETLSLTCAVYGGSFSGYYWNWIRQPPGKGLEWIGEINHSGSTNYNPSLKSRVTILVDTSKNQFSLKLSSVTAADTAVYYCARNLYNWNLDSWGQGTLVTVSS VL: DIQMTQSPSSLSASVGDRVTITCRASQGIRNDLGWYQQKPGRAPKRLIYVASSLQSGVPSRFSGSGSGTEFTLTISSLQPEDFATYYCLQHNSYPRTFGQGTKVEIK	koff	0.0498
ZY0EP0-C07 human IgG1 (antibody, V domains shown, also called ZY0EPO-C07) VH: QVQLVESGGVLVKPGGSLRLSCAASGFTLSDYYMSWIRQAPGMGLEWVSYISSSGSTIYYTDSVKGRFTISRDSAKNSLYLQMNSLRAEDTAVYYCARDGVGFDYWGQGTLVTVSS VL: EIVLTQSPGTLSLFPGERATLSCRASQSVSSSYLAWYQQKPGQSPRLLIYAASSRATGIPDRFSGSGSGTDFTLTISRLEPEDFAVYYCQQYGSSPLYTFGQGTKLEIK	koff	0.000551

Hey, just so you know, these numbers are from patent US20240239894A1.
